Origin of the recorded values: ChEMBL document CHEMBL1201862

Molecular target: Corticotropin-releasing factor receptor 2/Corticotropin-releasing factor-binding protein (Homo sapiens, UniProt P24387+Q13324)
Sequence (Q13324 whole entry): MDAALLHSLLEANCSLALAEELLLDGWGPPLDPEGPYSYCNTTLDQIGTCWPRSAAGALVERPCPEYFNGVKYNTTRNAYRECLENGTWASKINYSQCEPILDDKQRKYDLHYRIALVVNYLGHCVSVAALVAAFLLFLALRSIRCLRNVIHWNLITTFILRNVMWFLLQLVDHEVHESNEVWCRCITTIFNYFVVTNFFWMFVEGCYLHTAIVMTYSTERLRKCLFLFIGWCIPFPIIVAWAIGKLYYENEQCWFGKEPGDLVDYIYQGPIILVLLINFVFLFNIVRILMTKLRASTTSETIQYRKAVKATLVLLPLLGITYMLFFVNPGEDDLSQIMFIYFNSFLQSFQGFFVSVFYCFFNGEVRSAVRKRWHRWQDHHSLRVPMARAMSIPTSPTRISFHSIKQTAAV
Sequence (P24387 whole entry): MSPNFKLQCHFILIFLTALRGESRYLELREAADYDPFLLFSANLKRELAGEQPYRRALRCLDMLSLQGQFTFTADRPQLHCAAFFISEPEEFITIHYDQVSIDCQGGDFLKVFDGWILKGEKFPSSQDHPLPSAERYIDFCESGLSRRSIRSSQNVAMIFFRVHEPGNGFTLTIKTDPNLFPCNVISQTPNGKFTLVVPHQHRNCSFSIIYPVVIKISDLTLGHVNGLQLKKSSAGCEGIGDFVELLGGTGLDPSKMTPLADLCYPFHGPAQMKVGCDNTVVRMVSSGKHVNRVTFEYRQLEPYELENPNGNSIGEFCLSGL
Experiment: Dose Response confirmation of uHTS hits for small molecule antagonists of the CRF-binding protein and CRF-R2 receptor complex.
Assay type: functional
Settings: read-out: IC50_Mean
Activity calls are given as the source filed them. No stated cut-off is given here; in the data, actives have a measured IC50 and inactives only a lower limit.
Outcomes: active, inactive

{"columns": ["MOLECULE", "CATEGORY LABEL"],
 "data": [
  ["Cc1ccc(C(=O)N2c3ccccc3N(Cc3ccccc3)C(=O)C2(C)C)cc1", "active"],
  ["O=C(Nc1cccc(F)c1)c1coc(=O)c(Br)c1", "active"],
  ["Cc1cccc(NC(=O)c2cc(S(=O)(=O)c3ccccc3)ccc2Cl)c1", "active"],
  ["CC1CCCC(C)N1C(=O)COC(=O)c1cccs1 (centres undefined)", "inactive"]
]}
